target: papain (Carica papaya); assay: Inhibition of papain, incubation method; format: biochemical; conditions: second-order rate constant; NI = no inhibition
Sequence (P00784 134-345): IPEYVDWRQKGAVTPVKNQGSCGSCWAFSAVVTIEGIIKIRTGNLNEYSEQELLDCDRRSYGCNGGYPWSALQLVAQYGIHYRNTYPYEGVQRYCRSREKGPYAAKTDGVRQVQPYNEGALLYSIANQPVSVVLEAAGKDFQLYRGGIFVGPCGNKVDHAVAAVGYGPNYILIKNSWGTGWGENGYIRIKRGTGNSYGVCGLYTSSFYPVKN
Readout: kobs/[I] papain

[[record]]
compound = "CCOC(=O)[C@@H]1O[C@@H]1C(=O)N(CC(C)C)NC(=O)C(CC(C)C)NC(=O)OCc1ccccc1 (relative stereo) [Cbz-Leu-ALeu-cis-EP-COOEt]"
result = "0.38 M⁻¹ s⁻¹"

[[record]]
compound = "CCOC(=O)[C@@H]1O[C@H]1C(=O)N(CC)NC(=O)C(CC(C)C)NC(=O)OCc1ccccc1 (relative stereo) [Cbz-Leu-AAbu-trans-EP-COOEt]"
result = "4.94 M⁻¹ s⁻¹"

[[record]]
compound = "CCOC(=O)[C@H]1O[C@@H]1C(=O)N(CCc1ccccc1)NC(=O)C(CC(C)C)NC(=O)OCc1ccccc1 (stereo partly shown)"
result = "5.68 M⁻¹ s⁻¹"

[[record]]
compound = "CCOC(=O)[C@@H]1O[C@@H]1C(=O)N(CCc1ccccc1)NC(=O)[C@H](CC(C)C)NC(=O)OCc1ccccc1 (relative stereo) [Cbz-Leu-AHph-cis-EP-COOEt]"
result = "1.03 M⁻¹ s⁻¹"

[[record]]
compound = "CCOC(=O)[C@@H]1O[C@H]1C(=O)N(CC(C)C)NC(=O)OCc1ccccc1 (relative stereo) [Cbz-ALeu-trans-EP-COOEt]"
result = "16.1 M⁻¹ s⁻¹"

[[record]]
compound = "CCOC(=O)C1OC1C(=O)N(CCc1ccccc1)NC(C)=O (stereo not drawn) [Ac-AHph-trans-EP-COOEt]"
result = "26.88 M⁻¹ s⁻¹"

[[record]]
compound = "CC(C)CN(NC(=O)[C@H](Cc1ccccc1)NC(=O)OCc1ccccc1)C(=O)[C@@H]1O[C@H]1CCc1ccccc1 (relative stereo) [Cbz-Phe-ALeu-trans-EP-CH2CH2Ph]"
result = "0.7 M⁻¹ s⁻¹"

